Biological target: MK2 (Homo sapiens, UniProt P49137)
Construct: endogenous in cells; host or cells: Malme-3M
Sequence (P49137 whole entry): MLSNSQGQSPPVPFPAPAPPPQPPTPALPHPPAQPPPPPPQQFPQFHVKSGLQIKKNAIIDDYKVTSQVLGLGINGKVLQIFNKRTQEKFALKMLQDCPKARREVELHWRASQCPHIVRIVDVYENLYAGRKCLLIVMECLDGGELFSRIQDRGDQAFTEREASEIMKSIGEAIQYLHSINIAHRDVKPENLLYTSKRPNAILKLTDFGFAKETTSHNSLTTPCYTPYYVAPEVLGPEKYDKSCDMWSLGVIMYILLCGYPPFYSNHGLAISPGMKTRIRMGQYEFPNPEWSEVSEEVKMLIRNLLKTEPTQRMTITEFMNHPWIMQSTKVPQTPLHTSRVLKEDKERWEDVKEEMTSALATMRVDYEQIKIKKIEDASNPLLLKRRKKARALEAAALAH
Test: ELISA MK2 cell-based activity assay (phospho-HSP-27), Malme-3M cells
Details: Malme-3M cells, compound 20 μM, 30 minutes, 37° C., phospho-HSP27 ELISA
PROPERTY_LABEL: Pho-HSP27 (pg/mL)

In [3]: df
Out[3]:
                                   compound                   system_under_test  experimental_result
0  Cc1cc(C(=O)Nc2cc(Nc3ccc4c(/C=C/c5ccccn5)n[nH]c4c3)ccc2F)n(C)n1  MK2 (Homo sapiens, UniProt P49137)                 15.2
1  O=C(NC1CCN(CCCCC2(C(=O)NCC(F)(F)F)c3ccccc3-c3ccccc32)CC1)c1ccccc1-c1ccc(C(F)(F)F)cc1 [Compound 68, Lomitapide]  MK2 (Homo sapiens, UniProt P49137)                848.5

I = CC(=O)Nc1nc2c(Oc3cc(-c4ccc(C(F)(F)F)cc4)ncn3)cccc2s1
II = OC[C@@H](O)CN1CCN(c2ccccc2)CC1
Challenge: // pick larger Pho-HSP27 from pair: I vs II Lab log: write the label of the selected item as the result.
Response given: II
(II: 621.3 pg/mL, I: 29.9 pg/mL)

----------
Molecular target: MK2 (Rattus norvegicus)
Construct: endogenous in cells; host or cells: rat microvascular endothelial cells (RMVEC)
Sequence (Q80ZF4 1-386): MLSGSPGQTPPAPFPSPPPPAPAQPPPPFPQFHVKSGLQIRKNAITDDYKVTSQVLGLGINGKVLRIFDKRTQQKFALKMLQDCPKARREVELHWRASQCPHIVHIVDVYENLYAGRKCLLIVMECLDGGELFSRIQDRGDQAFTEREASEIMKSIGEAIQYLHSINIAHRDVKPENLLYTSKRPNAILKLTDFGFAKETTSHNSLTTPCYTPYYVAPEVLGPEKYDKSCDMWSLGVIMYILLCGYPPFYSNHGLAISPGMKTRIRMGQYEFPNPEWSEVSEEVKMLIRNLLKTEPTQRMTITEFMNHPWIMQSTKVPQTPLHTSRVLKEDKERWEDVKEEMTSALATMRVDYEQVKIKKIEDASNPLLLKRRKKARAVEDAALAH
Assay: ELISA MK2 cell-based activity assay (phospho-HSP-27), RMVEC cells
Conditions: compound 20 μM, 30 minutes, 37° C., phospho-HSP27 ELISA
PROPERTY_LABEL: Average Response HSP27 (pg/mL)

Please review the entries below; each comes with its answer.
                                   molecule  unit_symbol  experimental_result
0  CCn1cc(-c2ccnc3[nH]c(-c4cccc(CN(C)C)c4)cc23)c(-c2ccc(NC(=O)N(C)C)cc2)n1 [Compound 28, Gsk-1070916]        pg/mL                  0.9
1  O=C(Nc1cccc(C2=NCCN2)c1)Nc1cccc(C2=NCCN2)c1 [Imidocarb dipropionate]        pg/mL                 11.7

P = Cc1c(NC(=O)OC[C@@H]2COCCN2)cn2ncnc(Nc3ccc4c(cnn4Cc4cccc(F)c4)c3)c12 [Compound 49, Ac-480]
Q = Cc1cn(-c2cc(NC(=O)c3ccc(C)c(Nc4nccc(-c5cnccn5)n4)c3)cc(C(F)(F)F)c2)cn1 [Compound 52, Radotinib]
Challenge: // pick larger Average Response HSP27 from pair: P vs Q Lab log: write the label of the selected item as the result.
Response given: Q
(Q: 21.7 pg/mL, P: 12.1 pg/mL)

----------
Molecular target: MK2 (Homo sapiens)
Construct: endogenous in cells; host or cells: Malme-3M
Assay: ELISA MK2 cell-based activity assay (phospho-HSP-27), Malme-3M cells
Settings: Malme-3M cells, compound 20 μM, 30 minutes, 37° C., phospho-HSP27 ELISA
PROPERTY_LABEL: Pho-HSP27 (pg/mL)

Please review the entries below; each comes with its answer.
                                   molecule  experimental_result
0  O=C(Nc1ccc(-c2ccnc(Nc3ccc(N4CCOCC4)cc3)n2)cc1)C1CCCN1 (stereo not shown) [Compound 78, Xl-019]                 15.0
1  Cc1cn(-c2cc(NC(=O)c3ccc(C)c(Nc4nccc(-c5cccnc5)n4)c3)cc(C(F)(F)F)c2)cn1 [Compound 51, Nilotinib]                 12.7

a = C[C@@H](Oc1cc(-n2cnc3ccc(CN4CCN(C)CC4)cc32)sc1C(N)=O)c1ccccc1C(F)(F)F [Compound 29, Gsk-461364]
b = CN(C)Cc1c(C(=O)NCCOc2ccc(C(=O)NO)cc2)oc2ccccc12 [Compound 54, Abexinostat]
Challenge: Hi there, can you help? I need to know whether a or b has lower measured Pho-HSP27. Lab log: write the label of the selected item as the result.
Response given: a
(a: 22.1 pg/mL, b: 836.0 pg/mL)
